These measurements were taken from patent US20250368678A1.

# experiment_summary: In vitro liver microsomal stability assay, human
# Format: in vitro ADME
# conditions: Human liver microsomes
recorded_metric: CLint scaled at 1 µM (mL/min/kg)
Numbers only, in mL/min/kg.

Could you tell me CLint scaled at 1 µM for each of these molecules? They are listed below.
1. COCCn1ncn(CC(=O)[C@H]2CC[C@H]3[C@@H]4CC[C@@H]5C[C@](C)(O)CC[C@@H]5[C@H]4CC[C@]23C)c1=O [Compound 31]
2. C[C@@]1(O)CC[C@H]2[C@H](CC[C@@H]3[C@@H]2CC[C@]2(C)[C@@H](C(=O)Cn4cnn(-c5cccc(N)c5)c4=O)CC[C@@H]32)C1 [Compound 22]

## Output
1. 37
2. 320

---

# experiment_summary: Pharmacokinetic study in SD rats (plasma and brain)
# Assay type: in vivo
# conditions: male, rat, plasma, po, 24.4 umol/kg, IG 24.4 μmol/kg
recorded_metric: half-life (h)
One number for each entry, in h.

## Input Can you share its half-life? I mean this molecule: C[C@@]1(O)CC[C@H]2[C@H](CC[C@@H]3[C@@H]2CC[C@]2(C)[C@@H](C(=O)Cn4cnn(-c5cc(F)nc(F)c5)c4=O)CC[C@@H]32)C1 [Compound 41]
## Output 6.11

---

# experimental_target: α1β2γ2 GABA receptors (α1β2γ2-CHO-TRex stable cell strain) (Homo sapiens, UniProt P14867+P47870)
# Construct: expressed in transfected cells
# Sequence (P14867 28-456): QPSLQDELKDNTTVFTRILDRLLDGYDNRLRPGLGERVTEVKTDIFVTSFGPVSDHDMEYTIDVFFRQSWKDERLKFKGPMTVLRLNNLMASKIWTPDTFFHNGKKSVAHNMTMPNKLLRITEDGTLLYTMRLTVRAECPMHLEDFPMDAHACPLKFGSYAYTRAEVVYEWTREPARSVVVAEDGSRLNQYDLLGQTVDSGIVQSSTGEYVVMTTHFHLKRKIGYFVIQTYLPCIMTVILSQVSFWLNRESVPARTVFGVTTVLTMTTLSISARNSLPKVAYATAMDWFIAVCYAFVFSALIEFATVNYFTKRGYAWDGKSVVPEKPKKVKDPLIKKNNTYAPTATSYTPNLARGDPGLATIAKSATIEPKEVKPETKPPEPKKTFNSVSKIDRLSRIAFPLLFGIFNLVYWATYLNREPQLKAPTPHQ
# Sequence (P47870 25-512 limits assumed): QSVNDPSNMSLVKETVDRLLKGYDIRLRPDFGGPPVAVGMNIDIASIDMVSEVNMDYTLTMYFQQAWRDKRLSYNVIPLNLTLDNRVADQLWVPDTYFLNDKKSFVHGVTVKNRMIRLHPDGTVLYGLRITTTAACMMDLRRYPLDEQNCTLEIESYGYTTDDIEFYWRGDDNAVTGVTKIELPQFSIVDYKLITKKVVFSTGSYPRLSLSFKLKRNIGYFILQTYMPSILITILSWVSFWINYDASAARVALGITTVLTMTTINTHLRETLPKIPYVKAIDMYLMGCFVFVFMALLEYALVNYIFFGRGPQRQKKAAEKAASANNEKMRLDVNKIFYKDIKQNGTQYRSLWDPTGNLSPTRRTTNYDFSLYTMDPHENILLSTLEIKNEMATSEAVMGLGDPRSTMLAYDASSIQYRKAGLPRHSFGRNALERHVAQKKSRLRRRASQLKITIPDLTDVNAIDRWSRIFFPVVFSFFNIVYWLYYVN
# Sequence (P18507 40-475 partner): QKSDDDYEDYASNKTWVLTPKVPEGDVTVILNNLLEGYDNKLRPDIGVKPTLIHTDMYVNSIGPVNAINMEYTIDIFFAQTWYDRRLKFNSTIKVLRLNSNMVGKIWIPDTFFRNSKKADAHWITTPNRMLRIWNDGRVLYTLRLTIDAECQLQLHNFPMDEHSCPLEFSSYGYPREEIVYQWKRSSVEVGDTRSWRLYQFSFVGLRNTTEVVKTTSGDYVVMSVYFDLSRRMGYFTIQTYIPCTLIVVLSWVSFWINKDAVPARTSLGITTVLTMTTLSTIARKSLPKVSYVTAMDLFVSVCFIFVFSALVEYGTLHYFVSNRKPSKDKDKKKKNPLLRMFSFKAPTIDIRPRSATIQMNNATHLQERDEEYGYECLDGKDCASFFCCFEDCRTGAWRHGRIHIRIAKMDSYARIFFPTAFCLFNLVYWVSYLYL
# experiment_summary: Whole-cell patch clamp, intrasynaptic functional activity (positive allosteric regulation of GABA-induced current)
# Format: cell-based
# conditions: patch clamp -60 mV, GABA at EC10-20, α1β2γ2-CHO-TRex cells
recorded_metric: Emax

CC(C)(C)n1ncn(CC(=O)[C@H]2CC[C@H]3[C@@H]4CC[C@@H]5C[C@](C)(O)CC[C@@H]5[C@H]4CC[C@]23C)c1=O 806%

Could you tell me Emax for each of these molecules? They are listed below.
1. C[C@@]1(O)CC[C@H]2[C@H](CC[C@@H]3[C@@H]2CC[C@]2(C)[C@@H](C(=O)Cn4cnn(-c5ccccc5)c4=O)CC[C@@H]32)C1
2. Cc1cc(-n2ncn(CC(=O)[C@H]3CC[C@H]4[C@@H]5CC[C@@H]6C[C@](C)(O)CC[C@@H]6[C@H]5CC[C@]34C)c2=O)cc(C)n1

## Output
430%
691%

---

# experiment_summary: Pharmacokinetic study in SD rats (plasma and brain)
# Format: in vivo
# conditions: male, rat, plasma, po, 24.4 umol/kg, IG 24.4 μmol/kg
recorded_metric: MRT last (h)
One number for each entry, in h.

## Input Can you share its MRT last? I mean this molecule: "C[C@@]1(O)CC[C@H]2[C@H](CC[C@@H]3[C@@H]2CC[C@]2(C)[C@@H](C(=O)Cn4cnn(-c5cc(F)nc(F)c5)c4=O)CC[C@@H]32)C1"
## Output 7.61

---

# experiment_summary: In vitro liver microsomal stability assay, human
# Type: in vitro ADME
# conditions: Human liver microsomes
recorded_metric: log10 of CLint scaled at 1 µM (log10 of the value in mL/min/kg)
A difference of one corresponds to tenfold CLint scaled at 1 µM; all values are log10 with CLint scaled at 1 µM in mL/min/kg.

C[C@@]1(O)CC[C@H]2[C@H](CC[C@@H]3[C@@H]2CC[C@]2(C)[C@@H](C(=O)Cn4cnn(-c5cc(F)cc(F)c5)c4=O)CC[C@@H]32)C1 1.32
C[C@@]1(O)CC[C@H]2[C@H](CC[C@@H]3[C@@H]2CC[C@]2(C)[C@@H](C(=O)Cn4cnn(-c5cccc(F)n5)c4=O)CC[C@@H]32)C1 1.45
C[C@@]1(O)CC[C@H]2[C@H](CC[C@@H]3[C@@H]2CC[C@]2(C)[C@@H](C(=O)Cn4cnn(-c5cccc(F)c5)c4=O)CC[C@@H]32)C1 0.60
C[C@@]1(O)CC[C@H]2[C@H](CC[C@@H]3[C@@H]2CC[C@]2(C)[C@@H](C(=O)Cn4cnn(-c5ccccc5)c4=O)CC[C@@H]32)C1 1.04
C[C@@]1(O)CC[C@H]2[C@H](CC[C@@H]3[C@@H]2CC[C@]2(C)[C@@H](C(=O)Cn4cnn(-c5cc(Cl)ccn5)c4=O)CC[C@@H]32)C1 1.26
Cc1cc(-n2ncn(CC(=O)[C@H]3CC[C@H]4[C@@H]5CC[C@@H]6C[C@](C)(O)CC[C@@H]6[C@H]5CC[C@]34C)c2=O)ccn1 1.72
C[C@@]1(O)CC[C@H]2[C@H](CC[C@@H]3[C@@H]2CC[C@]2(C)[C@@H](C(=O)Cn4cnn(C5CCCCC5)c4=O)CC[C@@H]32)C1 1.96
C[C@@]1(O)CC[C@H]2[C@H](CC[C@@H]3[C@@H]2CC[C@]2(C)[C@@H](C(=O)Cn4cnn(CCOC(F)(F)F)c4=O)CC[C@@H]32)C1 1.61
Cn1ncn(CC(=O)[C@H]2CC[C@H]3[C@@H]4CC[C@@H]5C[C@](C)(O)CC[C@@H]5[C@H]4CC[C@]23C)c1=O 1.00
C[C@@]1(O)CC[C@H]2[C@H](CC[C@@H]3[C@@H]2CC[C@]2(C)[C@@H](C(=O)Cn4ccn(-c5cccc(F)c5)c4=O)CC[C@@H]32)C1 1.80

Could you tell me log10 of CLint scaled at 1 µM for each of these compounds? They are listed below.
1. C[C@@]1(O)CC[C@H]2[C@H](CC[C@@H]3[C@@H]2CC[C@]2(C)[C@@H](C(=O)Cn4cnn(-c5ccccc5F)c4=O)CC[C@@H]32)C1
2. C[C@@]1(O)CC[C@H]2[C@H](CC[C@@H]3[C@@H]2CC[C@]2(C)[C@@H](C(=O)Cn4cnn(-c5ccnc(F)c5)c4=O)CC[C@@H]32)C1

## Output
1. 1.48
2. 1.36

---

# experiment_summary: In vitro liver microsomal stability assay, rat
# Format: in vitro ADME
# conditions: Rat liver microsomes
Classify by measured CLint scaled at 1 µM: yes (1) if it is equal to or exceeds 8 L/h/kg, no (0) if it is smaller.

# example entries with known answers
compound	group_label
C[C@@]1(O)CC[C@H]2[C@H](CC[C@@H]3[C@@H]2CC[C@]2(C)[C@@H](C(=O)Cn4cnn(-c5cc(Cl)ccn5)c4=O)CC[C@@H]32)C1 [Compound 26]	no (0)
C[C@@]1(O)CC[C@H]2[C@H](CC[C@@H]3[C@@H]2CC[C@]2(C)[C@@H](C(=O)Cn4cnn(-c5cccc(N)c5)c4=O)CC[C@@H]32)C1 [Compound 22]	yes (1)
COc1ccc(-n2ncn(CC(=O)[C@H]3CC[C@H]4[C@@H]5CC[C@@H]6C[C@](C)(O)CC[C@@H]6[C@H]5CC[C@]34C)c2=O)cn1 [Compound 17]	yes (1)
C[C@@]1(O)CC[C@H]2[C@H](CC[C@@H]3[C@@H]2CC[C@]2(C)[C@@H](C(=O)Cn4cnn(-c5cc(F)ccc5F)c4=O)CC[C@@H]32)C1 [Compound 24]	no (0)
C[C@@]1(O)CC[C@H]2[C@H](CC[C@@H]3[C@@H]2CC[C@]2(C)[C@@H](C(=O)Cn4cnn(-c5cc(F)cc(F)c5)c4=O)CC[C@@H]32)C1 [Compound 28]	no (0)

## Input Say whether COCCn1ncn(CC(=O)[C@H]2CC[C@H]3[C@@H]4CC[C@@H]5C[C@](C)(O)CC[C@@H]5[C@H]4CC[C@]23C)c1=O [Compound 31] shows CLint scaled at 1 µM of 8 L/h/kg or more.
## Output yes (1)

## Input Say whether C[C@@]1(O)CC[C@H]2[C@H](CC[C@@H]3[C@@H]2CC[C@]2(C)[C@@H](C(=O)Cn4cnn(-c5cncc(F)c5)c4=O)CC[C@@H]32)C1 [Compound 23] shows CLint scaled at 1 µM of 8 L/h/kg or more.
## Output no (0)

---

# experiment_summary: Pharmacokinetic study in CD-1 mice (plasma and brain)
# Assay type: in vivo
# conditions: male, mouse, plasma, oral, IG 5 mg/kg, 2 h, read-out: Plasma concentration
recorded_metric: concentration at 2 h (ng/mL)
Give bare numbers, in ng/mL.

## Input Can you share its concentration at 2 h? I mean this molecule: "C[C@@]1(O)CC[C@H]2[C@H](CC[C@@H]3[C@@H]2CC[C@]2(C)[C@@H](C(=O)Cn4cnn(-c5cc(F)nc(F)c5)c4=O)CC[C@@H]32)C1"
## Output 1280

---

Please provide measured log10 EC50 for the entries that follow.
# experimental_target: α1β2γ2 GABA receptors (α1β2γ2-CHO-TRex stable cell strain) (Homo sapiens, UniProt P14867+P47870)
# experiment_summary: Whole-cell patch clamp, intrasynaptic functional activity (positive allosteric regulation of GABA-induced current)
# conditions: patch clamp -60 mV, GABA at EC10-20, α1β2γ2-CHO-TRex cells
A difference of one corresponds to tenfold EC50; all values are log10 with EC50 in nM.

molecule	recorded_value
C[C@@]1(O)CC[C@@]2(C)[C@@H](CC[C@@H]3[C@@H]2CC[C@]2(C)[C@@H](C(=O)Cn4cnn(-c5cccc(F)c5)c4=O)CC[C@@H]32)C1 [Compound 33]	2.78
C[C@@]1(O)CC[C@H]2[C@H](CC[C@@H]3[C@@H]2CC[C@]2(C)[C@@H](C(=O)Cn4cnn(-c5cccc(F)n5)c4=O)CC[C@@H]32)C1 [Compound 20]	2.57
C[C@@]1(O)CC[C@H]2[C@H](CC[C@@H]3[C@@H]2CC[C@]2(C)[C@@H](C(=O)Cn4cnn(C5CCCCC5)c4=O)CC[C@@H]32)C1 [Compound 30]	2.77
C[C@@]1(O)CC[C@H]2[C@H](CC[C@@H]3[C@@H]2CC[C@]2(C)[C@@H](C(=O)Cn4cnn(-c5ccccc5)c4=O)CC[C@@H]32)C1 [Compound 3]	1.95
COc1cccc(-n2ncn(CC(=O)[C@H]3CC[C@H]4[C@@H]5CC[C@@H]6C[C@](C)(O)CC[C@@H]6[C@H]5CC[C@]34C)c2=O)c1 [Compound 5]	1.41

Could you tell me log10 EC50 for each of these molecules? They are listed below.
1. C[C@@]1(O)CC[C@H]2[C@H](CC[C@@H]3[C@@H]2CC[C@]2(C)[C@@H](C(=O)Cn4cnn(-c5cc(F)cc(F)c5)c4=O)CC[C@@H]32)C1 [Compound 28]
2. C[C@@]1(O)CC[C@H]2[C@H](CC[C@@H]3[C@@H]2CC[C@]2(C)[C@@H](C(=O)Cn4cnn(-c5cccc(N)c5)c4=O)CC[C@@H]32)C1 [Compound 22]
3. C[C@@]1(O)CC[C@H]2[C@H](CC[C@@H]3[C@@H]2CC[C@]2(C)[C@@H](C(=O)Cn4cnn(-c5cc(F)ccc5F)c4=O)CC[C@@H]32)C1 [Compound 24]

## Output
1. 2.19
2. 2.54
3. 2.53

Could you tell me log10 EC50 for each of these molecules? They are listed below.
1. C[C@@]1(O)CC[C@H]2[C@H](CC[C@@H]3[C@@H]2CC[C@]2(C)[C@@H](C(=O)Cn4cnn(-c5nccs5)c4=O)CC[C@@H]32)C1 [Compound 32]
2. C[C@@]1(O)CC[C@H]2[C@H](CC[C@@H]3[C@@H]2CC[C@]2(C)[C@@H](C(=O)Cn4cnn(-c5cncc(F)c5)c4=O)CC[C@@H]32)C1 [Compound 23]
3. Cc1cc(-n2ncn(CC(=O)[C@H]3CC[C@H]4[C@@H]5CC[C@@H]6C[C@](C)(O)CC[C@@H]6[C@H]5CC[C@]34C)c2=O)ccn1 [Compound 36]

## Output
2.52
2.16
2.08
